measured.target: T1, human EphA2 ectodomain (human, UniProt P29317 24-537)
T1 construct: Soluble ectodomain used as the SPR analyte
T1 sequence (P29317 24-537 limits assumed): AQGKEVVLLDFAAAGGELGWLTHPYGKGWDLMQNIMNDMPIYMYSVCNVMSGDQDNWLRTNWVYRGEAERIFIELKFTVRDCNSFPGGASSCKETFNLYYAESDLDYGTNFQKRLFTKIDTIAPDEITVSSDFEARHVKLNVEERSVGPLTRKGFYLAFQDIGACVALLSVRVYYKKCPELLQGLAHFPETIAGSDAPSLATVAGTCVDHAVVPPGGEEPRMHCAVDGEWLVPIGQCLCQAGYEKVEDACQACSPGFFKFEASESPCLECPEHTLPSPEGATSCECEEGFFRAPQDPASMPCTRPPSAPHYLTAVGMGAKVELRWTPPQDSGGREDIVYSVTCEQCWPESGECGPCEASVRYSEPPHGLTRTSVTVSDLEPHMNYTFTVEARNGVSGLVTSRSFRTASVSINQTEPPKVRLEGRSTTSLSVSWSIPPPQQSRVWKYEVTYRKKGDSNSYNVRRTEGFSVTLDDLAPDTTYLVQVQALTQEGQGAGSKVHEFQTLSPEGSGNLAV
experiment: SPR (Biacore 8k), Fab-capture, 37C, 1:1 model;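 note: Anti-EphA2 IgG captured via immobilized anti-Fab, soluble EphA2 ectodomain as analyte at six twofold dilutions from 50 nM, HBS-EP+ pH 7.6 running buffer, double reference subtraction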
Would you kindly list Kd for each of these binders?
Respond with the bare value in nM.

In: For anti-EphA2 E152C S375C 1C1 (LC S93A) hIgG1 (WT Heavy Chain) (antibody, V domains shown, also called HD-58-MP05) VH: EVQLLESGGGLVQPGGSLRLSCAASGFTFSHYMMAWVRQAPGKGLEWVSRIGPSGGPTHYADSVKGRFTISRDNSKNTLYLQMNSLRAEDTAVYYCAGYDSGYDYVAVAGPAEYFQHWGQGTLVTVSS VL: DIQMTQSPSSLSASVGDRVTITCRASQSISTWLAWYQQKPGKAPKLLIYKASNLHTGVPSRFSGSGSGTEFSLTISGLQPDDFATYYCQQYNAYSRTFGQGTKVEIKR , what is its reported Kd?
Out: 265

In: I have this binder here, anti-EphA2 E152C S375C 1C1 (LC N92Q) hIgG1 (WT Heavy Chain) (antibody, V domains shown, also called 1C1 N92Q IgG; DE-54-AX20) VH: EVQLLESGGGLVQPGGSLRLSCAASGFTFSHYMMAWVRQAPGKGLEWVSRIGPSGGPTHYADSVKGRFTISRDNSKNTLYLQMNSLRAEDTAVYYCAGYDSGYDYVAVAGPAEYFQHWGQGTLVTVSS VL: DIQMTQSPSSLSASVGDRVTITCRASQSISTWLAWYQQKPGKAPKLLIYKASNLHTGVPSRFSGSGSGTEFSLTISGLQPDDFATYYCQQYQSYSRTFGQGTKVEIKR , and I need its recorded Kd.
Out: 196

In: I would be grateful if you could share the reported Kd for anti-EphA2 E152C S375C 1C1 (LC S93Q) hIgG1 (WT Heavy Chain) (antibody, V domains shown, also called DA-62-QP06) VH: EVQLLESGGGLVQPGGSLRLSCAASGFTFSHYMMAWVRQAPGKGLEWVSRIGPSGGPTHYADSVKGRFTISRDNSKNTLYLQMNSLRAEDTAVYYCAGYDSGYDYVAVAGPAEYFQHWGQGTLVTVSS VL: DIQMTQSPSSLSASVGDRVTITCRASQSISTWLAWYQQKPGKAPKLLIYKASNLHTGVPSRFSGSGSGTEFSLTISGLQPDDFATYYCQQYNQYSRTFGQGTKVEIKR .
Out: 237

In: Name the reported Kd value associated with the binder anti-EphA2 E152C S375C 1C1 (LC S72T) hIgG1 (WT Heavy Chain) (antibody, V domains shown, also called 1C1 S72T IgG; FE-76-NO13) VH: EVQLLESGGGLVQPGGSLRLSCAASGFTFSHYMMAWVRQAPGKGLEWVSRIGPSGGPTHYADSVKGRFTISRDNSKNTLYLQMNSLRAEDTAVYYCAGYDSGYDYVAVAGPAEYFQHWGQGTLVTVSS VL: DIQMTQSPSSLSASVGDRVTITCRASQSISTWLAWYQQKPGKAPKLLIYKASNLHTGVPSRFSGSGSGTEFTLTISGLQPDDFATYYCQQYNSYSRTFGQGTKVEIKR
Out: 216

The origin of these recorded values is patent US20260027220A1.
